- Tested on: Psdm. aerug. Bonn
- Test Description: MIC, liquid medium test tube series dilution test
- Format: cell-based, Pseudomonas aerug.
- Conditions: 24 hours, 37°C
Endpoint: MIC

- Compound: "C=CCOC(=O)N(C)C(=O)N[C@@H](C(=O)N[C@@H]1C(=O)N2[C@@H]1SC(C)(C)[C@@H]2C(=O)O)c1ccccc1 [Example 30]"
  Endpoint: "MIC"
  Obs Value: "100-500 units/ml"
- Compound: "Cc1ccc(C(NC(=O)N(C)C(=O)N(C)C)C(=O)N[C@@H]2C(=O)N3[C@@H]2SC(C)(C)[C@@H]3C(=O)O)cc1 (stereo partly drawn)"
  Endpoint: "MIC"
  Obs Value: "> 400 units/ml"

--- query ---
Query: What MIC appears in the records for this compound with Psdm. aerug. Bonn? `CN(C(=O)N[C@@H](C(=O)N[C@@H]1C(=O)N2[C@@H]1SC(C)(C)[C@@H]2C(=O)O)c1ccccc1)C(=O)c1ccccc1Cl`
Response: 0.8-4 units/ml

====

- Test system: Proteus vulg. 1017
- Test Description: MIC, liquid medium test tube series dilution test
- Assay type: cell-based, Proteus vulgaris
- Conditions: Proteus vulg. 1017, 24 hours, 37°C
In this section we review reported MIC values for a set of compounds.

Before answering, review these 5 worked examples.
- Compound: "CCC(=O)N(C)C(=O)N[C@@H](C(=O)N[C@@H]1C(=O)N2[C@@H]1SC(C)(C)[C@@H]2C(=O)O)c1ccccc1"
  Tgt: "Proteus vulg. 1017"
  MIC: "4-20 units/ml"
- Compound: "C=CCN(C(=O)NC(C(=O)N[C@@H]1C(=O)N2[C@@H]1SC(C)(C)[C@@H]2C(=O)O)c1ccc(OC)cc1)C(=O)c1ccccc1 (stereo partly shown)"
  Tgt: "Proteus vulg. 1017"
  MIC: "100-500 units/ml"
- Compound: "CN(C(=O)N[C@@H](C(=O)N[C@@H]1C(=O)N2[C@@H]1SC(C)(C)[C@@H]2C(=O)O)c1ccccc1)C(=O)c1cccs1"
  Tgt: "Proteus vulg. 1017"
  MIC: "4-20 units/ml"
- Compound: "Cc1ccc(C(NC(=O)N(C)C(=O)N(C)C)C(=O)N[C@@H]2C(=O)N3[C@@H]2SC(C)(C)[C@@H]3C(=O)O)cc1 (stereo partly shown)"
  Tgt: "Proteus vulg. 1017"
  MIC: "> 400 units/ml"
- Compound: "COC(=O)N(C)C(=O)N[C@@H](C(=O)N[C@@H]1C(=O)N2[C@@H]1SC(C)(C)[C@@H]2C(=O)O)c1c(Cl)cccc1Cl"
  Tgt: "Proteus vulg. 1017"
  MIC: "~ 500 units/ml"

Query: What MIC appears in the records for this compound with Proteus vulg. 1017? CN(C(=O)CCCl)C(=O)NC(C(=O)N[C@@H]1C(=O)N2[C@@H]1SC(C)(C)[C@@H]2C(=O)O)C1CC=CCC1 (stereo partly shown)
Response: > 500 units/ml

Query: What MIC appears in the records for this compound with Proteus vulg. 1017? CC(=O)N(C)C(=O)N[C@@H](C(=O)N[C@@H]1C(=O)N2[C@@H]1SC(C)(C)[C@@H]2C(=O)O)c1ccccc1 [Example 66A]
Response: 50 units/ml

Query: What MIC appears in the records for this compound with Proteus vulg. 1017? `CCN(C(=O)N[C@@H](C(=O)N[C@@H]1C(=O)N2[C@@H]1SC(C)(C)[C@@H]2C(=O)O)c1ccccc1)C(=O)c1ccc(OC)c([N+](=O)[O-])c1`
Response: 20-100 units/ml

Query: What MIC appears in the records for this compound with Proteus vulg. 1017? `CNC(=O)N(C)C(=O)N[C@@H](C(=O)N[C@@H]1C(=O)N2[C@@H]1SC(C)(C)[C@@H]2C(=O)O)c1ccccc1`
Response: 4-20 units/ml

Query: What MIC appears in the records for this compound with Proteus vulg. 1017? `Cc1ccc(C(=O)N(C)C(=O)N[C@@H](C(=O)N[C@@H]2C(=O)N3[C@@H]2SC(C)(C)[C@@H]3C(=O)O)c2ccccc2)cc1`
Response: 6.25 units/ml

Origin of values: patent US3974140A
